Target: human Cav2.2 (Homo sapiens, UniProt Q00975)
Sequence (Q00975 whole entry): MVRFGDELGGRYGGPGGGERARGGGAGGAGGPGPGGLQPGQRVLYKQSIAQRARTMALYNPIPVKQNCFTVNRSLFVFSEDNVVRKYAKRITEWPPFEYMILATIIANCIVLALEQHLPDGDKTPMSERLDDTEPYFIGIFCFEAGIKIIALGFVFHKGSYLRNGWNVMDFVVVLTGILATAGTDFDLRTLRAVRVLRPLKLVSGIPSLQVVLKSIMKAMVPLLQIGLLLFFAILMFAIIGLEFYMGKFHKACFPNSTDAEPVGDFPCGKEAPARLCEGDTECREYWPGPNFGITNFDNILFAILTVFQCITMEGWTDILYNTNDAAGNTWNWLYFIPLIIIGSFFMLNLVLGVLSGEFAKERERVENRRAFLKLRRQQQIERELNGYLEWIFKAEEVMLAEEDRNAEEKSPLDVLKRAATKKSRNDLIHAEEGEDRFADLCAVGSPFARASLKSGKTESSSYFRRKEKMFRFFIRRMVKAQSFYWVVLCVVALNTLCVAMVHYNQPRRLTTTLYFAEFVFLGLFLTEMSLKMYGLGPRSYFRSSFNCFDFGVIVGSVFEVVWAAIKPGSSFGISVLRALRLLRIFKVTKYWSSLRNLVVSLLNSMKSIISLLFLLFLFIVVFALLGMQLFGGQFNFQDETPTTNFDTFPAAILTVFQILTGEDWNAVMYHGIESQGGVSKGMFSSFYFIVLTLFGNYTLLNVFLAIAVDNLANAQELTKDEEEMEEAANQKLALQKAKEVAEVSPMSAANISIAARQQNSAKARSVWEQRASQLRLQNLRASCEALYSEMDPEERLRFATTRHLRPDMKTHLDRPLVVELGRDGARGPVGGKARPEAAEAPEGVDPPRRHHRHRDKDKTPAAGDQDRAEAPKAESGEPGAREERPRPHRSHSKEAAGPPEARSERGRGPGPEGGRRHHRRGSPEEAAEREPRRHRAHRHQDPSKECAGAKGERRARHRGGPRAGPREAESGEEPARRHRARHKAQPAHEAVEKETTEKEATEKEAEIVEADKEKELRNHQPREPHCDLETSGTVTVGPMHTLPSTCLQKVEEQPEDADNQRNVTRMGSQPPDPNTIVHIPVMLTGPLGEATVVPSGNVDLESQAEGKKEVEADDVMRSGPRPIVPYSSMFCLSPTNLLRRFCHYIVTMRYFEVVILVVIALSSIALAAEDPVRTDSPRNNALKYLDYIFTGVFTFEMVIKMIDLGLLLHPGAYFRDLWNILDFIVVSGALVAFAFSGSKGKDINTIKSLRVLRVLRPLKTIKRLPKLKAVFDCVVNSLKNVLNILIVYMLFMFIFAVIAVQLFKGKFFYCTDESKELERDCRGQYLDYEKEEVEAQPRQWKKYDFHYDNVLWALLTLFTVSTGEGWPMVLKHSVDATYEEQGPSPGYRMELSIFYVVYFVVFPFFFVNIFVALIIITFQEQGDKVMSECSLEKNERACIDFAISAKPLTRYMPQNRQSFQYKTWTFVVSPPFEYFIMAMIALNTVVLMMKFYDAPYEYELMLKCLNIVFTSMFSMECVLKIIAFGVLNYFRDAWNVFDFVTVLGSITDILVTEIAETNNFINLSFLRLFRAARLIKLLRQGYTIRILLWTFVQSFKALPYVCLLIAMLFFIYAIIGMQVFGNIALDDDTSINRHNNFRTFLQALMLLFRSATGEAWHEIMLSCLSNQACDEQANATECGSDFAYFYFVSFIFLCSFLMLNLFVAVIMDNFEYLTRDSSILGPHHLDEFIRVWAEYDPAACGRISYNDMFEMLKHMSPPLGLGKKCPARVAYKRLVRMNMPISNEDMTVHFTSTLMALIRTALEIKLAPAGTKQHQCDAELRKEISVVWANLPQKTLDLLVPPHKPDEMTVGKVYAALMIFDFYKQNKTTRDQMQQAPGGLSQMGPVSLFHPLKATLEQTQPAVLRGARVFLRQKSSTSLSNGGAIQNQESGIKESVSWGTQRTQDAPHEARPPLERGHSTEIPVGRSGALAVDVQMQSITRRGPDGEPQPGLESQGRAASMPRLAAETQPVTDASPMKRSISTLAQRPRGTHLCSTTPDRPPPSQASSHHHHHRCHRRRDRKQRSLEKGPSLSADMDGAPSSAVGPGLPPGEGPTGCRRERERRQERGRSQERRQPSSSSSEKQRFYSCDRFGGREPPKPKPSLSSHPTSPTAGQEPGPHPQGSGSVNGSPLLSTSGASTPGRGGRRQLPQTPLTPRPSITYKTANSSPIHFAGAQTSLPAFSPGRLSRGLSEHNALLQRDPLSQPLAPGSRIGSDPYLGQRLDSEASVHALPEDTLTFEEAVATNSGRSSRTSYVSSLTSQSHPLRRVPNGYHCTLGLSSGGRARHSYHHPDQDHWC
Sequence (P54289 25-956 partner limits assumed): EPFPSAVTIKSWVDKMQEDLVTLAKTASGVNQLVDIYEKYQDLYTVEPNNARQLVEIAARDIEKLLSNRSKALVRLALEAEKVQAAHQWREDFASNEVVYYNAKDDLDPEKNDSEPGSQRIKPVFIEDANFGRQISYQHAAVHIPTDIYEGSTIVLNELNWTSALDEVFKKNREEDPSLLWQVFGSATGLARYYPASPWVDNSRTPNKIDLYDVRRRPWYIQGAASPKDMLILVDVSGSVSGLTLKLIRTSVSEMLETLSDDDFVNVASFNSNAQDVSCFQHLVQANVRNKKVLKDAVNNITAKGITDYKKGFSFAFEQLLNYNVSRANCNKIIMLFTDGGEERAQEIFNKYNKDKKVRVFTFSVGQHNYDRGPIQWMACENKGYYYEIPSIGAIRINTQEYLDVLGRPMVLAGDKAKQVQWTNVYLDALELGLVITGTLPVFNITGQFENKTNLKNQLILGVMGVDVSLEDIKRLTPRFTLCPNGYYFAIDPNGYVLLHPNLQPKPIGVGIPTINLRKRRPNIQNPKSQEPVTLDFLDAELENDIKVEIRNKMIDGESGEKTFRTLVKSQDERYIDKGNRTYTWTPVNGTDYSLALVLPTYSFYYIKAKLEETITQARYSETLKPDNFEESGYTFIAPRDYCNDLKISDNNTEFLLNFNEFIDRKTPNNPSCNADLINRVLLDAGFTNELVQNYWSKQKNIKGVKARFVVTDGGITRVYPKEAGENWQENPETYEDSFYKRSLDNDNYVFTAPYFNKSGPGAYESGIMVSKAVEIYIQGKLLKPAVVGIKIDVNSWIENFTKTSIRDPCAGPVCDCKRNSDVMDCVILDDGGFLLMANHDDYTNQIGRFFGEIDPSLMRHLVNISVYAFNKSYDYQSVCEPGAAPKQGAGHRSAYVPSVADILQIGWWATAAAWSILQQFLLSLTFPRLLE
Sequence (P54289 957-1103 partner limits assumed): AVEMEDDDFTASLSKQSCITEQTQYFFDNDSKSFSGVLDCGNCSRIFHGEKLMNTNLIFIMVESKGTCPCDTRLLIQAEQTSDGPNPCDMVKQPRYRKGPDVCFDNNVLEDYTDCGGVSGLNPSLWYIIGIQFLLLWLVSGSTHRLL
Sequence (P54284 whole entry partner): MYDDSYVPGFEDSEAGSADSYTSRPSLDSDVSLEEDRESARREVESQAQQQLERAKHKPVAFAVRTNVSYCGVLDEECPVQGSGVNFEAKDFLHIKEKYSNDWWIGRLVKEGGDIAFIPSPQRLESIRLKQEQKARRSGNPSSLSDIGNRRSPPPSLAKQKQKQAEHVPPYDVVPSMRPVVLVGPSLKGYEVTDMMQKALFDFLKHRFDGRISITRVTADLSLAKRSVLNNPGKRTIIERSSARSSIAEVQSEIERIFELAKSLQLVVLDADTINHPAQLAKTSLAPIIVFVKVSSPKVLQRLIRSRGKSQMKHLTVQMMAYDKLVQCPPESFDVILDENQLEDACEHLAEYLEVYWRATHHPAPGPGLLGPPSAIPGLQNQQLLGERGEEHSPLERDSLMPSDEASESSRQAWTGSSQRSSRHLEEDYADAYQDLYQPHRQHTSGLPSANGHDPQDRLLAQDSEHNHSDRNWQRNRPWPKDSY
Assay: Assessment of calcium channel activity using FLIPR (Ca2+ influx in IMR32 cells)
Type: cell-based
Would you mind telling me the reported pIC50 of each entry?
# pIC50: negative log10 of molar concentration; output just the value

**Query** Lab request: please report pIC50 under test system human Cav2.2 (Homo sapiens, UniProt Q00975) for "CC(C)(C)C[C@@H](C(=O)N[C@H]1CC[C@@H]2CN(S(=O)(=O)c3ccc(C(F)(F)F)cc3)C[C@@H]21)N(C1CC1)C1CC1"
**Result** 5.77

**Query** And what about the compound "CN[C@@H](CC(C)(C)C)C(=O)N[C@H]1CC[C@@H]2CN(S(=O)(=O)c3ccc(C(F)(F)F)cc3)C[C@@H]21" ?
**Result** 5.88

**Query** And what about the compound "CN[C@@H](CC(C)C)C(=O)N[C@@H]1CC[C@H]2CN(c3ccc(OC(F)(F)F)cc3)C[C@H]21" ?
**Result** 5.55

**Query** And what about the compound "CC(C)N[C@@H](CC(C)(C)C)C(=O)N[C@H]1CC[C@@H]2CN(C(=O)[C@H](Cc3ccccc3)NC(C)C)C[C@@H]21" ?
**Result** 4.80

**Query** And what about the compound "O=C(N[C@H]1CC[C@@H]2CN(c3cccc(C(F)(F)F)n3)C[C@@H]21)c1cccc(O)c1" ?
**Result** 5.69

**Query** And what about the compound "FC(F)(F)c1cccc(N2C[C@H]3CC[C@H](NCc4c[nH]nn4)[C@H]3C2)n1" ?
**Result** 5.40

**Query** And what about the compound "CN[C@@H](CC(C)C)C(=O)N[C@H]1CC[C@@H]2CN(c3ccc(OC(F)(F)F)c(F)c3)C[C@@H]21" ?
**Result** 5.74

**Query** And what about the compound "O=C(N[C@H]1CC[C@@H]2CN(c3cccc(C(F)(F)F)n3)C[C@@H]21)[C@@H]1CCCCN1" ?
**Result** 5.89

**Query** And what about the compound "Cc1cnc(C(=O)N[C@H]2CC[C@@H]3CN(c4cccc(C(F)(F)F)n4)C[C@@H]32)cn1" ?
**Result** 5.58

**Query** And what about the compound "CN[C@@H](CC(C)C)C(=O)N[C@H]1CC[C@@H]2CN(c3ccc(C(F)(F)F)nc3)C[C@@H]21" ?
**Result** 5.44

**Query** And what about the compound "O=C(N[C@H]1CC[C@@H]2CN(c3cccc(C(F)(F)F)n3)C[C@@H]21)c1ccccc1F" ?
**Result** 5.88

**Query** And what about the compound "O=S(=O)(N[C@H]1CC[C@@H]2CN(c3cccc(C(F)(F)F)n3)C[C@@H]21)c1ccccc1F" ?
**Result** 5.50

###

Would you mind telling me the reported pIC50 of each entry?
Target: human Cav2.2 (Homo sapiens, UniProt Q00975)
Experiment: Assessment of calcium channel activity using FLIPR (Ca2+ influx in IMR32 cells)
Type: cell-based
# pIC50: negative log10 of molar concentration; output just the value

**Query** Fill in: pIC50 of O=C(N[C@@H]1CC[C@@H]2CN(Cc3ccccc3)C[C@@H]21)C(c1ccccc1)C1CCCCC1 (relative stereo) is ___
**Result** 5.97

**Query** And what about the compound "O=C(N[C@H]1CC[C@@H]2CN(S(=O)(=O)c3cccc(C(F)(F)F)c3)C[C@@H]21)[C@@H]1CCCN1" ?
**Result** 5.23

**Query** And what about the compound O=C(N[C@H]1CC[C@H]2CN(Cc3ccccc3)C[C@H]21)C1(c2ccccc2)CCCC1 (relative stereo) ?
**Result** 5.71

**Query** And what about the compound "CC(C)N[C@H]1CC[C@@H]2CN(c3cccc(C(F)(F)F)n3)C[C@@H]21" ?
**Result** 5.84

###

Target: human Cav2.2 (Homo sapiens, UniProt Q00975)
Experiment: Assessment of calcium channel activity using FLIPR (Ca2+ influx in IMR32 cells)
Assay type: cell-based
observedProperty: IC50

**Query** Fill in: IC50 of "O=C(N[C@H]1CC[C@@H]2CN(c3cccc(C(F)(F)F)n3)C[C@@H]21)c1cc(Cl)c[nH]1" is ___
**Result** 0.7 µM

**Query** And what about the molecule "O=C(N[C@H]1CC[C@H]2CN(Cc3ccccc3F)C[C@H]21)C(C1CCCCC1)C1CCCCC1" ?
**Result** 1.12 µM

**Query** And what about the molecule "COc1cccc(N2C[C@H]3CC[C@H](NC(=O)[C@@H]4C[C@@H](F)CN4)[C@H]3C2)c1" ?
**Result** > 30 µM

**Query** And what about the molecule "CCC[C@H](N)C(=O)N[C@@H]1CC[C@H]2CN(S(=O)(=O)c3ccc(C(F)(F)F)cc3)C[C@H]21" ?
**Result** 6.46 µM

###

Target: human Cav2.2 (Homo sapiens)
Experiment: Assessment of calcium channel activity using FLIPR (Ca2+ influx in IMR32 cells)
Type: cell-based
Settings: read-out: IC50 (μM) or percent inhibition (* indicates 3 minute incubation, otherwise 60 minute); IC50; 60 minute pre-incubation with compound; IMR32 cells, 80 mM KCl depolarization
Would you mind telling me the reported IC50 of each entry?
Write it as a number; the unit µM goes unstated.

**Query** Lab request: please report IC50 under test system human Cav2.2 (Homo sapiens) for CC(C)C[C@@H](C(=O)N[C@H]1CC[C@H]2CN(Cc3cccc(C(F)(F)F)c3)C[C@H]21)N(C)C [Example 509]
**Result** 4.55

**Query** And what about the molecule O=S(=O)(c1cccc(C(F)(F)F)c1)N(C1CC1)[C@H]1CC[C@H]2CN(Cc3cccc(C(F)(F)F)c3)C[C@H]21 (relative stereo) [Example 204] ?
**Result** 1.27

**Query** And what about the molecule O=C(N[C@@H]1CC[C@H]2CN(S(=O)(=O)c3ccc(F)cc3)C[C@H]21)[C@@H]1CCCCN1 [Example 399] ?
**Result** 15.3

**Query** And what about the molecule CC(C)N[C@H]1CC[C@@H]2CN(S(=O)(=O)c3ccc(C(F)(F)F)cc3Cl)C[C@@H]21 [Example 284] ?
**Result** 3.7

**Query** And what about the molecule CC(C)(C)[C@@H](C(=O)N[C@@H]1CC[C@H]2CN(Cc3ccccc3)C[C@H]21)c1ccccc1 [Example 32] ?
**Result** 1.42

**Query** And what about the molecule CC(C)C[C@H](NC(=O)OC(C)(C)C)C(=O)N[C@@H]1CC[C@H]2CN(Cc3cccc(C(F)(F)F)c3)C[C@H]21 (relative stereo) [Example 148] ?
**Result** 0.83

**Query** And what about the molecule O=C(CCCC(c1ccc(F)cc1)c1ccc(F)cc1)N[C@H]1CC[C@H]2CN(Cc3cccc(C(F)(F)F)c3)C[C@H]21 (relative stereo) [Example 132] ?
**Result** 1.13

**Query** And what about the molecule CC(C)(C)OC(=O)N1CCCC[C@H]1C(=O)N[C@@H]1CC[C@H]2CN(Cc3ccccc3)C[C@H]21 [Example 231] ?
**Result** 6.13

###

Target: human Cav2.2 (Homo sapiens, UniProt Q00975)
Assay: Assessment of calcium channel activity using FLIPR (Ca2+ influx in IMR32 cells)
Format: cell-based
Settings: read-out: IC50 (μM) or percent inhibition (* indicates 3 minute incubation, otherwise 60 minute); IC50; 60 minute pre-incubation with compound; IMR32 cells, 80 mM KCl depolarization
observedProperty: IC50 (µM)
Write it as a number; the unit µM goes unstated.

**Query** Fill in: IC50 of O=C(CC(c1ccc(F)cc1)c1ccc(F)cc1)N[C@@H]1CC[C@H]2CN(Cc3cccc(C(F)(F)F)c3)C[C@H]21 (relative stereo) is ___
**Result** 0.61

**Query** And what about the compound "O=S(=O)(N[C@@H]1CC[C@H]2CN(Cc3cccc(C(F)(F)F)c3)C[C@H]21)c1cccc(C(F)(F)F)c1" ?
**Result** 1.01

**Query** And what about the compound O=C(N[C@@H]1CC[C@H]2CN(Cc3ccccc3)C[C@H]21)C(c1ccccc1)C1CCCC1 (stereo partly shown) [Example 17] ?
**Result** 1.57

**Query** And what about the compound "CC(C)C[C@H](N)C(=O)N[C@@H]1CC[C@H]2CN(S(=O)(=O)c3cccc(C(F)(F)F)c3)C[C@H]21" ?
**Result** 1.45

**Query** And what about the compound CN[C@H](CC(C)C)C(=O)N[C@@H]1CC[C@H]2CN(Cc3cccc(C(F)(F)F)c3)C[C@H]21 (relative stereo) ?
**Result** 4.59

**Query** And what about the compound "O=C(N[C@@H]1CC[C@H]2CN(Cc3cccc(C(F)(F)F)c3)C[C@H]21)C(O)(C1CCCCC1)C1CCCCC1" ?
**Result** 1.33

**Query** And what about the compound Cc1cccc(CN2C[C@H]3CC[C@H](NC(=O)C(c4ccccc4)C(C)C)[C@H]3C2)c1 (stereo partly shown) ?
**Result** 1.78
